// data source = ChEMBL document CHEMBL1165949

Target: Tyrosine-protein phosphatase non-receptor type 1 (Homo sapiens, UniProt P18031)
Sequence (P18031 whole entry): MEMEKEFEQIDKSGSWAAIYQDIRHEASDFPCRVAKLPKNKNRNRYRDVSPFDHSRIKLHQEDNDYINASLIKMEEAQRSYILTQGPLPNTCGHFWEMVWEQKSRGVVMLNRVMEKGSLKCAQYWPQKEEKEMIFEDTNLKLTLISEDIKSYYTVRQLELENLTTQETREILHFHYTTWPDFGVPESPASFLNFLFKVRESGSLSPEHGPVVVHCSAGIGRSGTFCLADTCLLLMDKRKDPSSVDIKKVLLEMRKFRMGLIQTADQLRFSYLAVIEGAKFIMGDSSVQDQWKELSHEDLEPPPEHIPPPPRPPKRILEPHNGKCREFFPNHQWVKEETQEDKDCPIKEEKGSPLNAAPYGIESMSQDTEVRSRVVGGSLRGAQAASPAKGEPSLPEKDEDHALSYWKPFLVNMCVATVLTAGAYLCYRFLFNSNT
Test: Inhibition of PTP1B by pNPP hydrolase assay
pIC50: −log10 of the molar value.
Quantity Measured: pIC50

[[record]]
structure = "COc1ccccc1C(=O)O[C@H]1CC[C@]2(C)[C@H]3CC[C@H]4[C@@H](CC[C@@H]4[C@@]4(O)C[C@@H](C=C(C)C)OC4=O)[C@]3(C)CC[C@H]2C1(C)C"
value_reported = 5.72

[[record]]
structure = "CC(=O)O[C@H]1CC[C@]2(C)[C@H]3CC[C@H]4[C@@H](CC[C@@H]4[C@@]4(O)C[C@@H](C=C(C)C)OC4=O)[C@]3(C)CC[C@H]2C1(C)C"
value_reported = 4.90

[[record]]
structure = "CC(C)=C[C@@H]1C[C@](O)([C@H]2CC[C@@H]3[C@@H]2CC[C@H]2[C@@]3(C)CC[C@H]3C(C)(C)[C@@H](OC(=O)c4cccc([N+](=O)[O-])c4)CC[C@]23C)C(=O)O1"
value_reported = 5.77


1 = CC(C)=C[C@@H]1C[C@](O)([C@H]2CC[C@@H]3[C@@H]2CC[C@H]2[C@@]3(C)CC[C@H]3C(C)(C)[C@@H](OC(=O)c4ccc([N+](=O)[O-])cc4[N+](=O)[O-])CC[C@]23C)C(=O)O1
2 = CC(C)=C[C@H]1C[C@@](O)([C@H]2CC[C@@H]3[C@@H]2CC[C@H]2[C@@]3(C)CC[C@H]3C(C)(C)[C@@H](O)CC[C@]23C)C(=O)O1
Q: Hi there, can you help? I need to know whether 1 or 2 has lower measured pIC50. Provide the label of your selected option as the answer.
Result: 2
(2: 5.02, 1: 5.79)

###

Biological target: Tyrosine-protein phosphatase non-receptor type 1 (Homo sapiens, UniProt P18031)
Assay: Inhibition of PTP1B
Quantity Measured: IC50 (µM)

A = CC(C)=C[C@H]1C[C@@](O)([C@H]2CC[C@@H]3[C@@H]2CC[C@H]2[C@@]3(C)CC[C@H]3C(C)(C)[C@@H](O)CC[C@]23C)C(=O)O1
B = CC(C)=C[C@@H]1C[C@](O)([C@H]2CC[C@@H]3[C@@H]2CC[C@H]2[C@@]3(C)CC[C@H]3C(C)(C)[C@@H](O)CC[C@]23C)C(=O)O1
Q: Hi there, can you help? I need to know whether A or B has lower measured IC50. Provide the label of your selected option as the answer.
Result: A

###

Target sequence: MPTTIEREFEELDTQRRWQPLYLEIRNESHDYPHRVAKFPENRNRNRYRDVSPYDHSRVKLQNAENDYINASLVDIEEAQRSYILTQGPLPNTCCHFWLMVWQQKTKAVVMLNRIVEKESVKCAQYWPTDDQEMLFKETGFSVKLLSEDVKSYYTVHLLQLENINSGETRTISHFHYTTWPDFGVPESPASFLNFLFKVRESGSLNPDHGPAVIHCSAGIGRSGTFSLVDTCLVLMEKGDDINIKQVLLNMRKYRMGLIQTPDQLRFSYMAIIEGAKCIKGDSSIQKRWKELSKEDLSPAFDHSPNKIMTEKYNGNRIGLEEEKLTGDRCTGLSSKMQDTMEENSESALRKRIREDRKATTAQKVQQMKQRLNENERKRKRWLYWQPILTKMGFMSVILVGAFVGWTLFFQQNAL
Quantity Measured: IC50 (nM)

Sample records with IC50:
[[record]]
structure = "CC(C)=C[C@@H]1C[C@](O)([C@H]2CC[C@@H]3[C@@H]2CC[C@H]2[C@@]3(C)CC[C@H]3C(C)(C)[C@@H](OC(=O)c4ccccn4)CC[C@]23C)C(=O)O1"
quantity_measured = "IC50"
unit_annotation = "nM"
value_reported = 5140

[[record]]
structure = "CC(C)=C[C@@H]1C[C@](O)([C@H]2CC[C@@H]3[C@@H]2CC[C@H]2[C@@]3(C)CC[C@H]3C(C)(C)[C@@H](OC(=O)c4cccc([N+](=O)[O-])c4)CC[C@]23C)C(=O)O1"
quantity_measured = "IC50"
unit_annotation = "nM"
value_reported = 2260

[[record]]
structure = "CC(C)=C[C@@H]1C[C@](O)([C@H]2CC[C@@H]3[C@@H]2CC[C@H]2[C@@]3(C)CC[C@H]3C(C)(C)[C@@H](OC(=O)c4ccc(C(=O)O)c([N+](=O)[O-])c4)CC[C@]23C)C(=O)O1"
quantity_measured = "IC50"
unit_annotation = "nM"
value_reported = 1220


1 = CC(C)=C[C@@H]1C[C@](O)([C@H]2CC[C@@H]3[C@@H]2CC[C@H]2[C@@]3(C)CC[C@H]3C(C)(C)[C@@H](OC(=O)c4ccc(C(=O)O)cc4)CC[C@]23C)C(=O)O1
2 = CC(C)=C[C@@H]1C[C@](O)([C@H]2CC[C@@H]3[C@@H]2CC[C@H]2[C@@]3(C)CC[C@H]3C(C)(C)[C@@H](OC(=O)c4cccc(C(=O)O)c4)CC[C@]23C)C(=O)O1
3 = CC(C)=C[C@@H]1C[C@](O)([C@H]2CC[C@@H]3[C@@H]2CC[C@H]2[C@@]3(C)CC[C@H]3C(C)(C)[C@@H](OC(=O)c4ccc([N+](=O)[O-])cc4[N+](=O)[O-])CC[C@]23C)C(=O)O1
4 = CC(C)=C[C@@H]1C[C@](O)([C@H]2CC[C@@H]3[C@@H]2CC[C@H]2[C@@]3(C)CC[C@H]3C(C)(C)C(=O)CC[C@]23C)C(=O)O1
5 = CC(C)=C[C@@H]1C[C@](O)([C@H]2CC[C@@H]3[C@@H]2CC[C@H]2[C@@]3(C)CC[C@H]3C(C)(C)[C@@H](C(=O)c4ccccc4)CC[C@]23C)C(=O)O1
Q: Hi! Can you put these in order of IC50, lowest number first? # answer = labels listed in requested order
Result: 1, 2, 3, 5, 4

###

Target: Tyrosine-protein phosphatase non-receptor type 1 (Homo sapiens, UniProt P18031)
Test: Inhibition of PTP1B by pNPP hydrolase assay
pIC50: −log10 of the molar value.
Quantity Measured: pIC50

[[record]]
structure = "CC(C)=C[C@@H]1C[C@](O)([C@H]2CC[C@@H]3[C@@H]2CC[C@H]2[C@@]3(C)CC[C@H]3C(C)(C)[C@@H](OC(=O)c4ccccc4[N+](=O)[O-])CC[C@]23C)C(=O)O1"
quantity_measured = "pIC50"
value_reported = 5.71

[[record]]
structure = "COc1ccc(C(=O)O[C@H]2CC[C@]3(C)[C@H]4CC[C@H]5[C@@H](CC[C@@H]5[C@@]5(O)C[C@@H](C=C(C)C)OC5=O)[C@]4(C)CC[C@H]3C2(C)C)cc1"
quantity_measured = "pIC50"
value_reported = 5.58


a = CC(C)=C[C@@H]1C[C@](O)([C@H]2CC[C@@H]3[C@@H]2CC[C@H]2[C@@]3(C)CC[C@H]3C(C)(C)[C@@H](OC(=O)c4ccccn4)CC[C@]23C)C(=O)O1
b = CCCCC(=O)[C@H]1CC[C@]2(C)[C@H]3CC[C@H]4[C@@H](CC[C@@H]4[C@@]4(O)C[C@@H](C=C(C)C)OC4=O)[C@]3(C)CC[C@H]2C1(C)C
c = CC(C)=C[C@@H]1C[C@](O)([C@H]2CC[C@@H]3[C@@H]2CC[C@H]2[C@@]3(C)CC[C@H]3C(C)(C)C(=O)CC[C@]23C)C(=O)O1
Q: Hi! Can you put these in order of pIC50, lowest number first? # answer = labels listed in requested order
Result: c, b, a
(c: 4.88, b: 5.38, a: 5.63)

###

Molecular target: Tyrosine-protein phosphatase non-receptor type 1 (Homo sapiens, UniProt P18031)
Test: Inhibition of PTP1B by pNPP hydrolase assay
Quantity Measured: IC50 (µM)

Sample records with IC50:
[[record]]
molecule = "CC(C)=C[C@@H]1C[C@](O)([C@H]2CC[C@@H]3[C@@H]2CC[C@H]2[C@@]3(C)CC[C@H]3C(C)(C)[C@@H](OC(=O)c4cccc(C(=O)O)c4)CC[C@]23C)C(=O)O1"
value_reported = 0.33

[[record]]
molecule = "CC(C)=C[C@@H]1C[C@](O)([C@H]2CC[C@@H]3[C@@H]2CC[C@H]2[C@@]3(C)CC[C@H]3C(C)(C)[C@@H](O)CC[C@]23C)C(=O)O1"
value_reported = 11.3

[[record]]
molecule = "CC(C)=C[C@@H]1C[C@](O)([C@H]2CC[C@@H]3[C@@H]2CC[C@H]2[C@@]3(C)CC[C@H]3C(C)(C)[C@@H](C(=O)c4ccccc4)CC[C@]23C)C(=O)O1"
value_reported = 2.75


a = CC(C)=C[C@@H]1C[C@](O)([C@H]2CC[C@@H]3[C@@H]2CC[C@H]2[C@@]3(C)CC[C@H]3C(C)(C)C(NCc4cc(F)cc(F)c4)CC[C@]23C)C(=O)O1 (stereo not given in full)
b = CCC(=O)[C@H]1CC[C@]2(C)[C@H]3CC[C@H]4[C@@H](CC[C@@H]4[C@@]4(O)C[C@@H](C=C(C)C)OC4=O)[C@]3(C)CC[C@H]2C1(C)C
c = CC(C)=C[C@@H]1C[C@](O)([C@H]2CC[C@@H]3[C@@H]2CC[C@H]2[C@@]3(C)CC[C@H]3C(C)(C)[C@@H](OC(=O)c4ccc([N+](=O)[O-])cc4)CC[C@]23C)C(=O)O1
Q: Arrange the 3 molecules from largest to smallest IC50. # answer = labels listed in requested order
Result: a, b, c
(a: 11.6 µM, b: 4.6 µM, c: 1.42 µM)

a = CC(C)=C[C@@H]1C[C@](O)([C@H]2CC[C@@H]3[C@@H]2CC[C@H]2[C@@]3(C)CC[C@H]3C(C)(C)[C@@H](OC(=O)c4ccc(C(=O)O)cc4)CC[C@]23C)C(=O)O1
b = COc1cccc(C(=O)O[C@H]2CC[C@]3(C)[C@H]4CC[C@H]5[C@@H](CC[C@@H]5[C@@]5(O)C[C@@H](C=C(C)C)OC5=O)[C@]4(C)CC[C@H]3C2(C)C)c1
Q: Hi there, can you help? I need to know whether a or b has lower measured IC50. Provide the label of your selected option as the answer.
Result: a
(a: 0.27 µM, b: 2.08 µM)

I = CC(C)=C[C@@H]1C[C@](O)([C@H]2CC[C@@H]3[C@@H]2CC[C@H]2[C@@]3(C)CC[C@H]3C(C)(C)C(NCc4ccc([N+](=O)[O-])cc4)CC[C@]23C)C(=O)O1 (stereo not given in full)
II = CC(C)=C[C@@H]1C[C@](O)([C@H]2CC[C@@H]3[C@@H]2CC[C@H]2[C@@]3(C)CC[C@H]3C(C)(C)[C@@H](OC(=O)c4ccc(C(=O)O)c([N+](=O)[O-])c4)CC[C@]23C)C(=O)O1
Q: Which has the higher IC50, I or II ? Provide the label of your selected option as the answer.
Result: I
(I: 6.58 µM, II: 0.5 µM)
